# Assay System: T1, hBCMA (human BCMA) (Homo sapiens, UniProt Q02223)
# T1 sequence (Q02223 1-184): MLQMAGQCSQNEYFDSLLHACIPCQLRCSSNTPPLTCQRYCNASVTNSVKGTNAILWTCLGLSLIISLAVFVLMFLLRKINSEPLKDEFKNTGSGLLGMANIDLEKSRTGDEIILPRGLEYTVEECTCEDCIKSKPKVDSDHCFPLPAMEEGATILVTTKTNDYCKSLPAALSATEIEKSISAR
# Assay Info: Kinetics and affinity of hBCMA/human IgG interactions by SPR (Bio-Rad Proteon XPR36)
# Type: binding
# Measurement Parameters: huBCMA, 37° C.
Metric: ka (1/Ms) huBCMA @ 37° C.
# number then unit; no other words

Recorded ka (1/Ms) huBCMA @ 37° C. (molecule L3.PY/L3.KF/H2.QL: anti-BCMA antibody (antibody, V domains shown) VH: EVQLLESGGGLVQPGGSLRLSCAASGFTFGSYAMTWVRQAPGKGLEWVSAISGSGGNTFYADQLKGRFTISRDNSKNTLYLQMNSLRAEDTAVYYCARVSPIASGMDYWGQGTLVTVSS VL: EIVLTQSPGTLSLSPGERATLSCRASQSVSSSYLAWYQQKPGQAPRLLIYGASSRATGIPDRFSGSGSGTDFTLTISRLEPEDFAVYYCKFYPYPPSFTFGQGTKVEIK ): 2.07e+06 M⁻¹ s⁻¹
